- system_name: 5-LO (Homo sapiens, UniProt P09917)
- Sequence (P09917 1-674): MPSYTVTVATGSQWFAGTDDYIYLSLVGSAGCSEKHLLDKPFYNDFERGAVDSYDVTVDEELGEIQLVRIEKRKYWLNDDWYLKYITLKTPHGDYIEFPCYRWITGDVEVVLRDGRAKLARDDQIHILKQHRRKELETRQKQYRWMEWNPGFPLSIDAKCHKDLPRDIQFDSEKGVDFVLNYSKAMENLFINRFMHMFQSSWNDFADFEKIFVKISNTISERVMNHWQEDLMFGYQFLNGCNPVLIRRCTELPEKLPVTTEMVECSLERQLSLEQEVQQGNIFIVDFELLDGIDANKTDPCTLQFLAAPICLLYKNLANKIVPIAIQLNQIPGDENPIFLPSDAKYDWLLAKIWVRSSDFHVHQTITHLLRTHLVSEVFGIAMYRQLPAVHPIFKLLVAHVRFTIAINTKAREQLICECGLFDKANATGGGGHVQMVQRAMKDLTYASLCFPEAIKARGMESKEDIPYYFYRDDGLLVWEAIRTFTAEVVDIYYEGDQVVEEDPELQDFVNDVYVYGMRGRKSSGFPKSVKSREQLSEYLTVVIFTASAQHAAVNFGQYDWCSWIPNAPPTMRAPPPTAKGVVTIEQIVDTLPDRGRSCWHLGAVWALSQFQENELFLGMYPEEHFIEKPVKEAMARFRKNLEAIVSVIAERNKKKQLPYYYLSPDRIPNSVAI
- assay_explanation: 5-LO inhibition assay, Cerep (Method A, indirect fluorogenic readout, Rhodamine 123)
- Assay type: biochemical
- settings: 5-LO; 5 µM; n = 2; read-out: % inhibition of control values, Mean
readout_kind: inhibition at 5 µM (%)

These solved cases illustrate the format of a correct answer.
>>> recorded_value("CC1(C)OC2=C(CC1O)C(=O)C(=O)c1ccccc12 (centres unmarked)")
41.1
>>> recorded_value("CC(=O)OCC1OC(OCc2cn(C3C4=C(OC3(C)C)c3ccccc3C(=O)C4=O)nn2)C(OC(C)=O)C(OC(C)=O)C1OC(C)=O (centres unmarked)")
66.6
>>> recorded_value("CC(=O)OCC1OC(OCc2cn(CC3C4=C(OC3(C)C)c3ccccc3C(=O)C4=O)nn2)C(OC(C)=O)C(OC(C)=O)C1OC(C)=O (centres unmarked)")
75.4
>>> recorded_value("CC1(C)OC2=C(C(=O)C(=O)c3ccccc32)C1Nc1ccc(C(=O)/C=C/c2ccccc2)cc1 (centres unmarked)")
54.8
>>> recorded_value("CC1(C)CCC2=C(O1)c1ccccc1C(=O)C2=O")
102

[1] CC1(C)OC2=C(C(=O)C(=O)c3ccccc32)C1Nc1ccc(Cl)cc1 (centres unmarked)
[2] CC1(C)OC2=C(C(=O)C(=O)c3ccccc32)C1O (centres unmarked)
Parameter check: reported inhibition at 5 µM is higher for which label, 1 or 2 ? Give the label under which the chosen entry appears. 2
(2: 72.8%, 1: 31.1%)

Data origin, for the record: paper PMC6138237
